molecular target: SIRT1 (Homo sapiens); assay: Trp mass spectrometry assay of SIRT1 activation; format: biochemical; conditions: Trp mass spectrometry assay; EC1.5 = concentration of test compound that results in 150% activation of SIRT1
METRIC NAME: Tryp AVG EC1.5 (μM)

Solved entries:
{"columns": ["MOLECULE", "STUDY TARGET", "Tryp AVG EC1.5 (μM)"],
 "data": [
  ["O=C(Nc1cnccn1)N1c2nc(-c3ccnc(N4CCC(F)(F)C4)c3)ccc2N2CC[C@H]1C2 [Example 423]", "SIRT1 (Homo sapiens)", "A (A (EC1.5<1 μM))"],
  ["O=C(Nc1cccnc1)N1c2nc(-c3cncc(Cl)c3)ccc2N2CC[C@H]1C2 [Example 526]", "SIRT1 (Homo sapiens)", "A (A (EC1.5<1 μM))"],
  ["N#Cc1ccccc1-c1ccc2c(n1)N(C(=O)Nc1ccccn1)[C@H]1CCCN2C1 [Example 449]", "SIRT1 (Homo sapiens)", "B (B (EC1.5 1-25 μM))"],
  ["CCCn1cc(-c2ccc3c(n2)N(C(=O)Nc2cccnc2)[C@H]2CCN3C2)cn1 [Example 487]", "SIRT1 (Homo sapiens)", "B (B (EC1.5 1-25 μM))"],
  ["O=C(Nc1cncc(F)c1)N1c2nc(-c3cccc(Cl)c3)ccc2N2CCC1CC2 [Example 521]", "SIRT1 (Homo sapiens)", "B (B (EC1.5 1-25 μM))"],
  ["O=C(Nc1cnccn1)N1c2nc(-c3cccc(Cl)c3)cc(O)c2N2CCC[C@H]1C2 [Example 443]", "SIRT1 (Homo sapiens)", "B (B (EC1.5 1-25 μM))"]
]}

// Tryp AVG EC1.5 (μM) lookup, molecule = O=C(Nc1cncc(F)c1)N1c2nc(-c3cncc(F)c3)ccc2N2CCC1CC2 [Example 571] , result: B (B (EC1.5 1-25 μM))

// Tryp AVG EC1.5 (μM) lookup, molecule = N#Cc1ccccc1-c1ccc2c(n1)N(C(=O)Nc1cccnn1)[C@H]1CCCN2C1 [Example 426] , result: B (B (EC1.5 1-25 μM))

---

biological target: SIRT1 (Homo sapiens); experiment: Trp mass spectrometry assay of SIRT1 activation; type: biochemical; conditions: Trp mass spectrometry assay; EC1.5 = concentration of test compound that results in 150% activation of SIRT1
METRIC NAME: Tryp AVG EC1.5 (μM)

Solved entries:
{"columns": ["COMPOUND", "Tryp AVG EC1.5 (μM)"],
 "data": [
  ["O=C(Nc1cnccn1)N1c2nc(-c3cccc(C(F)(F)F)c3)ccc2N2CCC1CC2", "A (A (EC1.5<1 μM))"],
  ["O=C(Nc1cncc(F)c1)N1c2nc(-c3cccnc3)ccc2N2CCC[C@H]1C2", "B (B (EC1.5 1-25 μM))"],
  ["O=C(Nc1cccnc1)N1c2nc(-c3cncc(F)c3)ccc2N2CCC1CC2", "B (B (EC1.5 1-25 μM))"],
  ["O=C(Nc1cccc(-c2cnco2)n1)N1c2nc(-c3cccc(C(F)(F)F)c3)ccc2N2CCC[C@H]1C2", "A (A (EC1.5<1 μM))"],
  ["NC(=O)CN1CCC(c2cccc(NC(=O)N3c4nc(-c5cccc(C(F)(F)F)c5)ccc4N4CC[C@H]3C4)c2)C1 (some centres unmarked)", "A (A (EC1.5<1 μM))"]
]}

// Tryp AVG EC1.5 (μM) lookup, compound = `COc1cc(NC(=O)N2c3nc(-c4cccnc4)ccc3N3CCC[C@H]2C3)ncn1` , result: B (B (EC1.5 1-25 μM))

// Tryp AVG EC1.5 (μM) lookup, compound = `Cc1ccc(-c2ccc3c(n2)N(C(=O)Nc2ccccn2)[C@H]2CCCN3C2)cn1` , result: B (B (EC1.5 1-25 μM))

---

Target: SIRT1 (Homo sapiens)
Sequence (Q96EB6 1-747): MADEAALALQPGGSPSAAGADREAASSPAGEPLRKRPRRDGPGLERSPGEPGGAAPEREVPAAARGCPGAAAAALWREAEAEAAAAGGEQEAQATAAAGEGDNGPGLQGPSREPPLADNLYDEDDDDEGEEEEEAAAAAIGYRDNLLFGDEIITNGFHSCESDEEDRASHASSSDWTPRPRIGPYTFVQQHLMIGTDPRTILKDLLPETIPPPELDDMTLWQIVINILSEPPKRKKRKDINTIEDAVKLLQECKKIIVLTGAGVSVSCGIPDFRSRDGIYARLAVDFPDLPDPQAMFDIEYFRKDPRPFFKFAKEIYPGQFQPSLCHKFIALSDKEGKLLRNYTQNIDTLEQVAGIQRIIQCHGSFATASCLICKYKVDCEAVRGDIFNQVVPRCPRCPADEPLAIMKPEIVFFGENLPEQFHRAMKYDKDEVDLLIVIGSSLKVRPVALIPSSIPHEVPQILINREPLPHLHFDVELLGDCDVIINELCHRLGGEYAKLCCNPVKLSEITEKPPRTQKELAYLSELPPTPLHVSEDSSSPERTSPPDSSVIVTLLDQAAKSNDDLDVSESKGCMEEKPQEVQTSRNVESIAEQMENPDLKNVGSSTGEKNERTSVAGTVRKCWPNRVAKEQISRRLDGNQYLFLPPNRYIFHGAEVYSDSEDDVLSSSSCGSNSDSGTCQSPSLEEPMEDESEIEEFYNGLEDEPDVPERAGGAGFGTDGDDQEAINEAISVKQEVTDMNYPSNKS
Assay: Trp mass spectrometry assay of SIRT1 activation
Type: biochemical
Conditions: Trp mass spectrometry assay; concentration of test compound giving 150% activation of SIRT1
Description: Mass spectrometry based assays were used to identify modulators of SIRT1 activity. […] The peptide was labeled with the fluorophore STMR (excitation 540 nm/emission 580 nm) at the C-terminus. The sequence of the peptide substrate was based on p53 with several modifications. […] The Trp mass spectrometry assay was conducted as follows. […] Test compound was added at varying concentrations to this reaction mixture and the resulting reactions were monitored. […]
METRIC NAME: Tryp AVG EC1.5 (μM)

Solved entries:
{"columns": ["COMPOUND", "Tryp AVG EC1.5 (μM)"],
 "data": [
  ["Cn1cc(-c2ccc3c(n2)N(C(=O)Nc2cccnc2)[C@H]2CCN3C2)cn1", "B (B (EC1.5 1-25 μM))"],
  ["CS(=O)(=O)c1cncc(-c2ccc3c(n2)N(C(=O)Nc2ccccn2)[C@H]2CCCN3C2)c1", "A (A (EC1.5<1 μM))"],
  ["CN(C)c1cccc(-c2ccc3c(n2)N(C(=O)Nc2ccccn2)[C@H]2CCCN3C2)c1", "B (B (EC1.5 1-25 μM))"],
  ["N#Cc1cccc(-c2ccc3c(n2)N(C(=O)Nc2ccccn2)[C@H]2CCCN3C2)c1", "A (A (EC1.5<1 μM))"],
  ["COc1ncc(-c2ccc3c(n2)N(C(=O)Nc2cnccn2)[C@H]2CCN3C2)c(OC)n1", "B (B (EC1.5 1-25 μM))"]
]}

// Tryp AVG EC1.5 (μM) lookup, compound = `CS(=O)(=O)c1cncc(-c2ccc3c(n2)N(C(=O)Nc2cncc(F)c2)[C@H]2CCCN3C2)c1` , result: A (A (EC1.5<1 μM))

// Tryp AVG EC1.5 (μM) lookup, compound = `O=C(Nc1cccc(-c2cnco2)c1)N1c2nc(-c3cccc(Cl)c3)ccc2N2CC[C@H]1C2` , result: A (A (EC1.5<1 μM))

// Tryp AVG EC1.5 (μM) lookup, compound = `COc1cc(NC(=O)N2c3nc(-c4cccc(N(C)C)c4)ccc3N3CCC[C@H]2C3)ncn1` , result: A (A (EC1.5<1 μM))

---

target: SIRT1 (Homo sapiens, UniProt Q96EB6); experiment: Trp mass spectrometry assay of SIRT1 activation; type: biochemical; conditions: Trp mass spectrometry assay; concentration of test compound giving 150% activation of SIRT1

{"columns": ["COMPOUND", "Tryp AVG EC1.5 (μM)"],
 "data": [
  ["O=C(Nc1cncc(F)c1)N1c2nc(-c3cncc(C(F)(F)F)c3)ccc2N2CCC[C@H]1C2", "A (A (EC1.5<1 μM))"],
  ["COc1ccc(-c2ccc3c(n2)N(C(=O)Nc2ccccn2)[C@H]2CCN3C2)cn1", "B (B (EC1.5 1-25 μM))"],
  ["O=C(Nc1ccccn1)N1c2nc(-c3ccnc(N4CCC(C(F)(F)F)C4)c3)ccc2N2CC[C@H]1C2 (stereo partly shown)", "A (A (EC1.5<1 μM))"],
  ["O=C(Nc1ccc(F)cn1)N1c2nc(-c3cccc(C(F)(F)F)n3)ccc2N2CC[C@H]1C2", "B (B (EC1.5 1-25 μM))"]
]}

---

Target: SIRT1 (Homo sapiens)
Sequence (Q96EB6 1-747): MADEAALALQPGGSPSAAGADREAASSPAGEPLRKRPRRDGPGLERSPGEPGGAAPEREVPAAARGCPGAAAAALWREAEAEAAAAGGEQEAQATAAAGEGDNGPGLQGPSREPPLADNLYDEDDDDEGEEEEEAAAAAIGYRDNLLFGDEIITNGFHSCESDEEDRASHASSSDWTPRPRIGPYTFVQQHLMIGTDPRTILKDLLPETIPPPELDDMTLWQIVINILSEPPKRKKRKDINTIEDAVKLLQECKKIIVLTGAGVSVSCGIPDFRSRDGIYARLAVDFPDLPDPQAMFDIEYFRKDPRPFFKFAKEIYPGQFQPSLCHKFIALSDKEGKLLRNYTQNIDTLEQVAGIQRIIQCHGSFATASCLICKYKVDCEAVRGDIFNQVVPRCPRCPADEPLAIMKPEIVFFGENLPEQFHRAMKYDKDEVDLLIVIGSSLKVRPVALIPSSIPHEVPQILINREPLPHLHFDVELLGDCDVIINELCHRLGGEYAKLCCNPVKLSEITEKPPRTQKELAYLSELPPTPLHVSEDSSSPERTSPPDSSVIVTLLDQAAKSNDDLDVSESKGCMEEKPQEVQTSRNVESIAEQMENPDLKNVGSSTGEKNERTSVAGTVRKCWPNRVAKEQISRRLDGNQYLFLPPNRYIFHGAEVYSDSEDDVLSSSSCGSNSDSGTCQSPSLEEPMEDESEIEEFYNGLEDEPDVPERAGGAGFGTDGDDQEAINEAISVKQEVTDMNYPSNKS
Experiment: Trp mass spectrometry assay of SIRT1 activation
Type: biochemical
Conditions: concentration giving 150% activation of SIRT1; Trp peptide substrate
METRIC NAME: Tryp AVG EC1.5 (μM)

{"columns": ["MOLECULE", "Tryp AVG EC1.5 (μM)"],
 "data": [
  ["O=C(C1CC1)N1CCC(c2cccc(NC(=O)N3c4nc(-c5cccc(C(F)(F)F)c5)ccc4N4CC[C@H]3C4)c2)C1 (some centres unmarked) [Example 637]", "A (A (EC1.5<1 μM))"],
  ["CCC(=O)c1cccc(NC(=O)N2c3nc(-c4cccc(C(F)(F)F)c4)ccc3N3CC[C@H]2C3)c1 [Example 714]", "A (A (EC1.5<1 μM))"],
  ["NCCCc1ccc(NC(=O)N2c3nc(-c4cccc(C(F)(F)F)c4)ccc3N3CC[C@H]2C3)cc1-c1cnco1 [Example 765]", "A (A (EC1.5<1 μM))"],
  ["O=C(NCCCc1cccnc1)N1c2nc(-c3cccc(C(F)(F)F)c3)ccc2N2CC[C@H]1C2 [Example 674]", "B (B (EC1.5 1-25 μM))"],
  ["O=C(Nc1cnccn1)N1c2nc(-c3cccc(Cl)c3)ccc2N2C[C@@H](O)[C@H]1C2 [Example 678]", "C (C (EC1.5>25 μM))"]
]}

// Tryp AVG EC1.5 (μM) lookup, molecule = O=C(Nc1cccc(-c2cnco2)n1)N1c2nc(-c3cncc(F)c3)ccc2N2CC[C@H]1C2 [Example 739] , result: A (A (EC1.5<1 μM))

// Tryp AVG EC1.5 (μM) lookup, molecule = O=C(Nc1ccncc1)N1c2nc(-c3cccc(C(F)(F)F)c3)ccc2N2CC[C@@H]1C2 [Example 824] , result: A (A (EC1.5<1 μM))
